TEST DESCRIPTION: A CellTox Green Cytotoxicity Assay to monitor cytotoxicity in HepG2 cells - 24 hour (AID 1224878); note: nearly all actives have a fitted effect of over 45% in size; note: potency is the fitted concentration of half-maximal effect
APPLIED CONDITIONS: CellTox Green fluorescence; series mostly up to 76.8 µM
Results filed as inconclusive are left out. Activity calls are given as the source filed them. Calls come from the whole dose curve; as a rule, active = well fitted activation curve with a large enough effect in the repeat runs; inconclusive = weak or mixed curves; inactive = flat fitted curve, though single readings scatter.
OBSERVED PROPERTY: Potency

| MOLECULE | OBSERVED PROPERTY | VALUE MEASURED |
| --- | --- | --- |
| O=C(O)C[C@H](O)C[C@H](O)/C=C/c1c(C2CC2)nc2ccccc2c1-c1ccc(F)cc1 | Potency | 2.61 µM (active) |
| CC/C(=C(/c1ccc(O)cc1)c1ccc(OCCN(C)C)cc1)c1ccccc1 | Potency | 18.2 µM (active) |
| c1ccc(-c2nc3ccccc3[nH]2)cc1 | Potency | inactive |
| CN1CCN(C)CC1 | Potency | inactive |
| O=C(NCc1ncc(C(F)(F)F)cc1Cl)c1c(Cl)cccc1Cl | Potency | inactive |
| CCOC(=O)C1=NN(c2ccc(Cl)cc2Cl)C(C)(C(=O)OCC)C1 (centres undefined) | Potency | inactive |
| CC(C)=NNC(N)=S | Potency | inactive |
| O=C1OCc2ccccc21 | Potency | inactive |
| CCOC(=O)[C@H](C)O | Potency | inactive |
| CC(C)=CCC[C@H](C)CC=O | Potency | inactive |
| C1CCSC1 | Potency | inactive |
| NC(=O)C1CO1 (centres undefined) | Potency | inactive |
| O=c1[nH]cccc1O | Potency | inactive |
| [Cl][Eu]([Cl])[Cl] | Potency | inactive |
| Nc1c(Br)cc([N+](=O)[O-])cc1Br | Potency | inactive |
| Nc1ccc(Cl)c([N+](=O)[O-])c1 | Potency | inactive |
| O=C1C=CC(=O)N1c1cccc(N2C(=O)C=CC2=O)c1 | Potency | 12.3 µM (active) |
| Nc1ccc(F)c([N+](=O)[O-])c1 | Potency | inactive |
| O=[N+]([O-])c1ccc(CO)cc1 | Potency | inactive |
| CC1(C)[C@H]2CC[C@]1(C)C(=O)C2 | Potency | inactive |
| C=C1CC[C@H]2O[C@]2(C)CC[C@@H]2[C@@H]1CC2(C)C | Potency | inactive |
| O=C1CCC(=O)N1 | Potency | inactive |
| Cc1ccc2n[nH]nc2c1 | Potency | inactive |
| CN[C@H]1CC[C@@H](c2ccc(Cl)c(Cl)c2)c2ccc(S(N)(=O)=O)cc21 | Potency | 13.8 µM (active) |
| [Cl][Dy]([Cl])[Cl] | Potency | inactive |
| Nc1cc([N+](=O)[O-])cc(Cl)c1O | Potency | inactive |
| O=C1c2ccccc2C(=O)c2c(Cl)cccc21 | Potency | inactive |
| CCCC(C)C=O (centres undefined) | Potency | inactive |
| CCOC=C(C(=O)OCC)C(=O)OCC | Potency | inactive |
| CCCCCCCCCC[N+](C)(CCCCCCCCCC)CCC[Si](OC)(OC)OC | Potency | 21.9 µM (active) |
| CN1CCN(c2ccccc2/C=C2\SCCN(c3ccc(Cl)c(Cl)c3)C2=O)CC1 | Potency | 24.5 µM (active) |
| C=CC(=O)O[C@H]1C[C@@H]2CC[C@@]1(C)C2(C)C | Potency | inactive |
| CN1CC[C@H](c2c(O)cc(O)c3c(=O)cc(-c4ccccc4Cl)oc23)[C@H](O)C1 | Potency | 0.268 µM (active) |
| CCNc1nc(NC(C)(C)C)nc(OC)n1 | Potency | inactive |
| O=C(N[C@H](CO)[C@H](O)c1ccc([N+](=O)[O-])cc1)C(Cl)Cl | Potency | inactive |
| Cc1cc(C)c(O)c(C(C)(C)C)c1 | Potency | inactive |
| CCC(O)CO (centres undefined) | Potency | inactive |
| O=[N+]([O-])c1ccc(O)c2ncccc12 | Potency | inactive |
| N#Cc1ccc(C/C(=N/NC(=O)Nc2ccc(OC(F)(F)F)cc2)c2cccc(C(F)(F)F)c2)cc1 | Potency | inactive |
